Hello, the source for this data is ChEMBL document CHEMBL1795262, in case you need it.

assay target: UniProt P09917
Sequence (P09917 whole entry): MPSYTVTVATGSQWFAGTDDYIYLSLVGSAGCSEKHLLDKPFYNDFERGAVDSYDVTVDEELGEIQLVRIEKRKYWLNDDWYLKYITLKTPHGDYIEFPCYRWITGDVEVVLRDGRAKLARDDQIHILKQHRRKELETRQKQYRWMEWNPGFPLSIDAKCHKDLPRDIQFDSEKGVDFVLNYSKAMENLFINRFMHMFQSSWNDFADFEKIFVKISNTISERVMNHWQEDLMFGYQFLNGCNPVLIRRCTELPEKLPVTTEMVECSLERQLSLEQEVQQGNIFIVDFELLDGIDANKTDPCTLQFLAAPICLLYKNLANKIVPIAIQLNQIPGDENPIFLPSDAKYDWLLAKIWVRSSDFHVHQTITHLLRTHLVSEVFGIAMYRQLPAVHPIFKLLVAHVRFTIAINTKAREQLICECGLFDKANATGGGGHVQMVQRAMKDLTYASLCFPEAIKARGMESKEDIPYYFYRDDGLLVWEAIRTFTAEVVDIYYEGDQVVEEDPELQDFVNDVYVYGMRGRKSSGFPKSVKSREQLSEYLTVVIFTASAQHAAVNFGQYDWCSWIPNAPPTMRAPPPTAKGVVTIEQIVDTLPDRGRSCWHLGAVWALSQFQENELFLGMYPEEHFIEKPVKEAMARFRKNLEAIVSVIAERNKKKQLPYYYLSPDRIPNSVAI
measured metric: IC50 (µM)

CCN([C@@H]1CCN([C@@H](C)c2ccccc2)C1)S(=O)(=O)NCCc1c(-c2cccs2)n[nH]c1-c1cnccn1; 5.5

---

assay target: Polyunsaturated fatty acid lipoxygenase ALOX15 (Oryctolagus cuniculus)
assay summary: Inhibition of rabbit 15-LO using arachidonic acid by standard colorimetric assay
pIC50: −log10 of the molar value.
measured metric: pIC50

CCCCCc1ccc(S(=O)(=O)NCCc2c(-c3cccs3)n[nH]c2-c2cnccn2)cc1; 7.19
CCCCCc1ccc(S(=O)(=O)NCCc2c(-c3cccs3)n[nH]c2-c2cccs2)cc1; 7.72
CCN([C@@H]1CCN(C(C)(C)c2ccccc2)C1)S(=O)(=O)NCCc1c(-c2cccs2)n[nH]c1-c1cnccn1; 8.39
Cc1cc(-c2[nH]nc(-c3cccs3)c2CCNS(=O)(=O)N(C)[C@@H]2CCN(Cc3ccccc3)C2)no1; 7.82
CCCCCc1ccc(S(=O)(=O)NCCc2c(-c3ccccc3)n[nH]c2Cc2ccccc2)cc1; 6.04
CN([C@@H]1CCN(Cc2ccccc2)C1)S(=O)(=O)NCCc1c(-c2cccs2)n[nH]c1-c1cccs1; 8.15
CCN([C@@H]1CCN([C@@H](C)c2ccccc2)C1)S(=O)(=O)NCCc1c(-c2cccs2)n[nH]c1-c1cnccn1; 8.62
CCCCCc1ccc(S(=O)(=O)NCCc2c(-c3ccccc3)n[nH]c2-c2cccc(OC)c2)cc1; 6.28
CN([C@@H]1CCN(Cc2ccccc2)C1)S(=O)(=O)NCCc1c(-c2cccs2)n[nH]c1-c1cnccn1; 8.15
CCCCCc1ccc(S(=O)(=O)NCCc2c(-c3ccccc3)n[nH]c2-c2ccccc2)cc1; 6.50
CN([C@@H]1CCN(Cc2ccccc2)C1)S(=O)(=O)NCCc1c(-c2cccs2)n[nH]c1-c1ccccc1; 8.12
CCN([C@@H]1CCN([C@H](C)c2ccccc2)C1)S(=O)(=O)NCCc1c(-c2cccs2)n[nH]c1-c1cnccn1; 8.09
CCCCCc1ccc(S(=O)(=O)NCCc2c(-c3cccs3)n[nH]c2-c2cc(C)on2)cc1; 7.44
CCCCCc1ccc(S(=O)(=O)NCCc2c(-c3ccccc3)n[nH]c2-c2ccc(OC)cc2)cc1; 5.81
CCCCCc1ccc(S(=O)(=O)NCCc2c(-c3cccs3)n[nH]c2-c2cccc(OC)c2)cc1; 7.28
COc1cccc(-c2[nH]nc(-c3cccs3)c2CCNS(=O)(=O)N(C)[C@@H]2CCN(Cc3ccccc3)C2)c1; 8.37
CCCCCc1ccc(S(=O)(=O)NCCc2c(-c3cccs3)n[nH]c2-c2ccccc2)cc1; 7.55

---

assay target: Polyunsaturated fatty acid lipoxygenase ALOX12 (Homo sapiens)
Sequence (whole entry): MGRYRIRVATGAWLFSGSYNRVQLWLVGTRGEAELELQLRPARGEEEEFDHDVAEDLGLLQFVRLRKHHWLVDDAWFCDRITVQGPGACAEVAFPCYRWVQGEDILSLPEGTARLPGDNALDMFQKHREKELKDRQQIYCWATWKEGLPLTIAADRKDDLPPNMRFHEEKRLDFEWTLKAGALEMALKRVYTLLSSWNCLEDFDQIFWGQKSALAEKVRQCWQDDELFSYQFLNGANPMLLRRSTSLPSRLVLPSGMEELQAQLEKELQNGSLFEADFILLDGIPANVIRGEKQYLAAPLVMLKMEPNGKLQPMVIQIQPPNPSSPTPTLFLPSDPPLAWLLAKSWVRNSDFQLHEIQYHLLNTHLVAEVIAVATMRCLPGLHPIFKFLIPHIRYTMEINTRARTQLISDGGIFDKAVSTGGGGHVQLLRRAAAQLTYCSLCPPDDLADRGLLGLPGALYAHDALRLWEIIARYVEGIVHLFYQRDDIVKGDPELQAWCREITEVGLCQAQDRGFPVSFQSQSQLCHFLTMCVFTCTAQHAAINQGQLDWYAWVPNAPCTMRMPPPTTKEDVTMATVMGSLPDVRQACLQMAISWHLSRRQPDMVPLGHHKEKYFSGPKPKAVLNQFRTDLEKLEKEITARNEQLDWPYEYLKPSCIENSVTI
assay summary: Inhibition of 12-LO at 10 uM
Reported inhibition values are given for each entry in this list.
measured metric: inhibition (%)

CCN([C@@H]1CCN([C@@H](C)c2ccccc2)C1)S(=O)(=O)NCCc1c(-c2cccs2)n[nH]c1-c1cnccn1; 32
CCN([C@@H]1CCN([C@H](C)c2ccccc2)C1)S(=O)(=O)NCCc1c(-c2cccs2)n[nH]c1-c1cnccn1; 38
CCN([C@@H]1CCN(C(C)(C)c2ccccc2)C1)S(=O)(=O)NCCc1c(-c2cccs2)n[nH]c1-c1cnccn1; 35
CCCCCc1ccc(S(=O)(=O)NCCc2c(-c3cccs3)n[nH]c2-c2cccs2)cc1; 35
CCN([C@@H]1CCN(C(C)c2ccc(F)cc2)C1)S(=O)(=O)NCCc1c(-c2cccs2)n[nH]c1-c1cnccn1 (stereo not given in full); 16

---

Reported IC50 values are given for each entry in this list.
assay target: Polyunsaturated fatty acid lipoxygenase ALOX15 (Oryctolagus cuniculus)
assay summary: Inhibition of rabbit 15-LO using linoleic acid by standard colorimetric assay
measured metric: IC50 (nM)

CCCCCc1ccc(S(=O)(=O)NCCc2c(-c3cccs3)n[nH]c2-c2cc(C)on2)cc1; 10
CCN([C@@H]1CCN(C(C)(C)c2ccccc2)C1)S(=O)(=O)NCCc1c(-c2cccs2)n[nH]c1-c1cnccn1; 2.7
COc1cccc(-c2[nH]nc(-c3cccs3)c2CCNS(=O)(=O)N(C)[C@@H]2CCN(Cc3ccccc3)C2)c1; 1.5
CCCCCc1ccc(S(=O)(=O)NCCc2c(-c3ccccc3)n[nH]c2-c2ccccc2)cc1; 35
CCCCCc1ccc(S(=O)(=O)NCCc2c(-c3ccccc3)n[nH]c2Cc2ccccc2)cc1; 158
CCCCCc1ccc(S(=O)(=O)NCCc2c(-c3ccccc3)n[nH]c2-c2cccc(OC)c2)cc1; 68
CCCCCc1ccc(S(=O)(=O)NCCc2c(-c3ccc(OC)cc3)n[nH]c2C)cc1; 3980
CCCCCc1ccc(S(=O)(=O)NCCc2c(-c3cccs3)n[nH]c2-c2cnccn2)cc1; 12
CCCCCc1ccc(S(=O)(=O)NCCc2c(-c3ccccc3)n[nH]c2-c2ccc(OC)cc2)cc1; 150
CCCCCc1ccc(S(=O)(=O)NCCc2c(-c3ccccc3OC)n[nH]c2-c2ccccc2)cc1; 1220
CCCCCc1ccc(S(=O)(=O)NCCc2c(-c3cccs3)n[nH]c2-c2cccc(OC)c2)cc1; 9
CCN([C@@H]1CCN([C@H](C)c2ccccc2)C1)S(=O)(=O)NCCc1c(-c2cccs2)n[nH]c1-c1cnccn1; 5.3

---

assay target: Polyunsaturated fatty acid lipoxygenase ALOX15 (Oryctolagus cuniculus, UniProt P12530)
Sequence (P12530 whole entry): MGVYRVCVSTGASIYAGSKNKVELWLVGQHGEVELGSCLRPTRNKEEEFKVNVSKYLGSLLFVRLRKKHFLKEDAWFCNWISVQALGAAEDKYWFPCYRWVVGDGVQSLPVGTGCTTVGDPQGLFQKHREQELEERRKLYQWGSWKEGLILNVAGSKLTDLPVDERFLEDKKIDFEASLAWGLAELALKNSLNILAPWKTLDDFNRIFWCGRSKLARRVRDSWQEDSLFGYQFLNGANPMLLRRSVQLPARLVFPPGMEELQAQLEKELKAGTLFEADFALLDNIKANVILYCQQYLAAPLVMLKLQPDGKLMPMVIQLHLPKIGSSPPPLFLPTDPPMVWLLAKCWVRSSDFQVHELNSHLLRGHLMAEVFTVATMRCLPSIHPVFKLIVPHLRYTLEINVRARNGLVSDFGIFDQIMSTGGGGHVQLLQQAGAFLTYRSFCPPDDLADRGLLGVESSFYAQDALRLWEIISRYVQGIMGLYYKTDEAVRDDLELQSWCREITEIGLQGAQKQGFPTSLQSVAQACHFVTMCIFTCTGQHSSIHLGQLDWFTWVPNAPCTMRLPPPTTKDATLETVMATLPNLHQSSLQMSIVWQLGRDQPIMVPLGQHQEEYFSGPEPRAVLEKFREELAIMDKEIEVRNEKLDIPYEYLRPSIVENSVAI
assay summary: Inhibition of rabbit 15-LO using linoleic acid by standard colorimetric assay
Reported IC50 values are given for each entry in this list.
measured metric: IC50 (nM)

CN([C@@H]1CCN(Cc2ccccc2)C1)S(=O)(=O)NCCc1c(-c2cccs2)n[nH]c1-c1cnccn1; 3
CN([C@@H]1CCN(Cc2ccccc2)C1)S(=O)(=O)NCCc1c(-c2cccs2)n[nH]c1-c1cccs1; 2
CCCCCc1ccc(S(=O)(=O)NCCc2c(-c3ccc(OC)cc3)n[nH]c2CC(C)C)cc1; 305
CCCCCc1ccc(S(=O)(=O)NCCc2c(-c3cccs3)n[nH]c2-c2cccs2)cc1; 4
CCN([C@@H]1CCN([C@@H](C)c2ccccc2)C1)S(=O)(=O)NCCc1c(-c2cccs2)n[nH]c1-c1cnccn1; 1.8
CCCCCc1ccc(S(=O)(=O)NCCc2c(-c3cccs3)n[nH]c2-c2ccccc2)cc1; 11
CN([C@@H]1CCN(Cc2ccccc2)C1)S(=O)(=O)NCCc1c(-c2cccs2)n[nH]c1-c1ccccc1; 3.6
Cc1cc(-c2[nH]nc(-c3cccs3)c2CCNS(=O)(=O)N(C)[C@@H]2CCN(Cc3ccccc3)C2)no1; 4.2
